Just for reference, patent US20220259593A1 is where these values come from.

# Test system: K562 CRISPRi cells
# assay-notes: Constant region variant library pooled growth screen, K562
# Type: cell-based, human
# assay-conditions: sgRNA constant region variant; activity relative to unmodified constant region cr995; mean CRISPRi activity
assay-readout: Mean relative activity

molecule	assay-readout	measured
cr613 (nucleic acid, listed as DNA, chemistry not fully specified) guide: GTTTAAGAGCTAAGCTGGAAACAGCATAGCAAGTTTAAATAACGGTACTCGGTTATCAACTTGAAAAAGTGGCACCGAGTCGGTGCT	Mean relative activity	0.01125
cr663 (nucleic acid, listed as DNA, chemistry not fully specified) guide: GTTTAAGAGCTAAGCTGGAAACAGCATAGCAAGGTTAAATAAGGCTAGTCCGTTATCAACTTGAAAAAGTGGCACCTAGTAGGTGCT	Mean relative activity	0.01081
cr541 (nucleic acid, listed as DNA, chemistry not fully specified) guide: GTTTAAGAGCTAAGCTGGAAACAGCATAGCAAGTTTAAATAAAGGTACTCTGTTATCAACTTGAAAAAGTGGTACCGAGTCGGTACT	Mean relative activity	0.01856
cr496 (nucleic acid, listed as DNA, chemistry not fully specified) guide: GTTTAAGAGCTAAGCTGGAAACAGCATAACAAGTTTAAATAAGGCTAGTCCTTTATCAACTTGAAAAAGTGGCACCGAGACGGTGCT	Mean relative activity	0.02078
